test system: LOU-NH91; assay: relative viability (nuclei count vs DMSO), 5 days (fraction); higher = more cells survive; settings: first compound 8 µM
Recorded relative viability values for a group of compounds are listed next.

CCCCCCCCCCCC1=C(O)C(=O)C=C(O)C1=O [Embelin] + CCNC(=O)c1noc(-c2cc(C(C)C)c(O)cc2O)c1-c1ccc(CN2CCOCC2)cc1 [Luminespib] (partner 0.01 µM) = 0.299
CCCCCCCCCCCC1=C(O)C(=O)C=C(O)C1=O [Embelin] + O=C(c1cc(Cc2n[nH]c(=O)c3ccccc23)ccc1F)N1CCN(C(=O)C2CC2)CC1 [Olaparib] (partner 8 µM) = 0.924

Record CCCCCCCCCCCC1=C(O)C(=O)C=C(O)C1=O [Embelin] + C[C@@H](Oc1cc(-c2cnn(C3CCNCC3)c2)cnc1N)c1c(Cl)ccc(F)c1Cl [Crizotinib] (partner 1 µM) , field relative viability: 0.741

Record CCCCCCCCCCCC1=C(O)C(=O)C=C(O)C1=O [Embelin] + COc1cc2c(Oc3ccc(NC(=O)C4(C(=O)Nc5ccc(F)cc5)CC4)cc3F)ccnc2cc1OCCCN1CCOCC1 [Foretinib] (partner 0.25 µM) , field relative viability: 0.978
